# Tested on: human PBMCs
# method: Human PBMC cytokine response assay (IFN-γ and IFN-α in cell-free medium by ELISA), with or without cPLGA
# Type: cell-based
# recorded conditions: Example 58; 0.8 ug/ml; donor 3

- substance: "(5′-TCGACGT-3′-HEG)2-glycerol-HEG-5′-TCGACGT-3′ [Compound C-101]"
  uom: "pg/mL"
  IFN-α: 52
- substance: "5′-TCGAACGTTCGA-3′ (SEQ ID NO: 155) (listed as DNA, chemistry not fully specified) [Compound P-17, reference compound]"
  uom: "pg/mL"
  IFN-α: 52
- substance: "(5′-TCGAACGTTCGA-3′ (SEQ ID NO: 155)-HEG)2-glycerol-HEG-3′-AGCTTGCAAGCT-5′ (SEQ ID NO: 155) (DNA, all phosphorothioate, methylation of C not given here; Three DNA copies joined by HEG spacers and glycerol branching, one copy inverted) [Compound C-174]"
  uom: "pg/mL"
  IFN-α: 998
- substance: "(5′-TAGTCAT-3′-HEG)2-glycerol-HEG-5′-AACCTTC-3′ [Compound M-3, reference compound]"
  uom: "pg/mL"
  IFN-α: 52
- substance: "(5′-TCGAACGTTCGA-3′ (SEQ ID NO: 155)-HEG)2-glycerol-HEG-5′-TCGAACGTTCGA-3′ (SEQ ID NO: 155) (three copies via HEG-glycerol branching, chemistry not fully specified) [Compound C-173]"
  uom: "pg/mL"
  IFN-α: 1138

The measured values listed here are drawn from patent US9028845B2.
